system: SN12C renal; experiment: NCI tumour cell line growth inhibition, 48 h
Listed here are compounds together with their documented TGI.

Response field TGI (SN12C renal) for item O=C(Nc1nc(=S)c2c(ncn2CCO)[nH]1)c1ccccc1 : > 100 µM

====

system: DMS 114 small cell lung; assay: NCI tumour cell line growth inhibition, 48 h
Listed here are compounds together with their documented TGI.

Response field TGI (DMS 114 small cell lung) for item CCc1nnc(-c2nsc3ccccc23)s1 : > 100 µM

Response field TGI (DMS 114 small cell lung) for item O=C1CCC2(c3ccccc3)Nc3ncccc3N12 (stereo unspecified) : > 100 µM

====

Listed here are compounds together with their documented TGI.
system: DU-145 prostate; assay: NCI tumour cell line growth inhibition, 48 h
State just the number; it will be interpreted in µM.

compound	TGI / µM
O=c1oc2c(ccc3ccccc32)cc1C1=CSC2=NCCN12	75.1

TGI reported for this compound Cc1ccc(S(=O)(=O)n2c3c(c4ccccc42)CCN2CCC(Br)C[C@@H]32)cc1 (some centres undefined) : 29.1

TGI reported for this compound CN(C)CC1CCCCCC(CN(C)C)C1=O (centres undefined) : 12.4

TGI reported for this compound CC12CC(OC(=O)[C@]1(C)O)[C@@H]([C@]1(O)CC[C@H]3[C@@H]4C[C@H]5O[C@]56[C@@H](O)C=CC(=O)[C@]6(C)[C@H]4CC[C@@]31C)C2 (some centres undefined) : 86.7

TGI reported for this compound Cc1cn2c(/C=N/Nc3ccccn3)c(-c3ccc(Cl)c([N+](=O)[O-])c3)nc2s1 : 29.8

====

test system: KM20L2 colon; test: NCI tumour cell line growth inhibition, 48 h
Listed here are molecules together with their documented TGI.

> print(dat)
                                  molecule  metricname  testresult
1  O=C(Nc1nc(=S)c2c(ncn2CCO)[nH]1)c1ccccc1         TGI    > 100 µM

TGI reported for this molecule COC(=O)C1=C(O)c2cc3c(cc2[C@H](c2cc(OC)c(OC)c(OC)c2)C1C(=O)OC)OCO3 (some centres undefined) : > 100 µM

TGI reported for this molecule CC1OC1C(=O)C1(O)C(C)C(O)C23OC2(C(O)c2c(O)cccc2C3=O)C1O (centres undefined) : 1.14 µM

TGI reported for this molecule CC(=O)Nc1ccc(/C=C/C(=O)c2sc(-c3nc(C)c(C(=O)/C=C/c4ccc(NC(C)=O)cc4)s3)nc2C)cc1 : > 100 µM

====

test system: LXFL 529 NSCLC; assay: NCI tumour cell line growth inhibition, 48 h
metricName: TGI

> print(dat)
                                   compound  testresult
1            C=C=C(Sc1ccccc1)C(C)(C)OC(C)=O     38.3 µM
2  CCC1CCc2c(OC)ccc(OCC(=O)O)c2C1=O (stereo not drawn)    > 100 µM
3  N.N.NCCCCCCN.O=C([O-])CC(=O)[O-].O=C([O-])CC(=O)[O-].[Pt+4].[Pt+4]    > 100 µM
4  C=CCC(OCCOCC)c1cc(OCCOCC)ccc1OC (stereo not drawn)    > 100 µM
5  CCOC(=O)C1=C(Nc2cccc3ccccc23)OC/C1=N\NC(=O)c1ccccc1O    > 100 µM
6  CC#CC1C(OC(=O)c2ccccc2)CCCC1(CI)N=[N+]=[N-] (stereo not drawn)    > 100 µM
7             CCOC(=O)c1nc(-c2ccccc2)oc1OCC    > 100 µM
8  O=C1NC2C=CN(Cc3ccccc3)C=C2C(=O)N2CCCC12 (stereo not drawn)    > 100 µM

TGI reported for this compound CS/C(=N\c1nccs1)NC(=O)c1cccc(Cl)c1 : > 100 µM

TGI reported for this compound CN(C)c1ccc(C(=C2C=CC(=[N+](C)C)C=C2)c2ccc(N(C)C)cc2)cc1 : 1.03 µM

TGI reported for this compound C=C1CCc2occ(C)c2C2C1C1=C(CC(C)C1=O)C1OC12C (stereo not drawn) : > 100 µM

TGI reported for this compound CCC(=O)N(O)C(C)(C)C : > 100 µM

TGI reported for this compound CCN(CC)CC(C(=O)Nc1c(C)cccc1C)/C(C)=N\NC(=O)c1ccncc1 (stereo not drawn) : > 100 µM
